System: RSK2(Kin.Dom.2-C-terminal);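 note: KINOMEscan kinase panel screen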
Construct: gene RPS6KA3
Settings: concentration: 1 μM,replicates: in singlicate; n = 1

Compound: CCn1c(-c2nonc2N)nc2c(C#CC(C)(C)O)nc(OCCN)cc21.Cl.Cl
%Inh: 22%

Compound: Cl.Cl.Nc1nc(-c2ccc3c(N)n[nH]c3c2)cc(N2CCCC(NC(=O)c3ccccc3)C2)n1 (stereo not drawn)
%Inh: 0%

Compound: C[C@@H]1CCN(C(=O)CC#N)C[C@@H]1N(C)c1ncnc2[nH]ccc12
%Inh: 0%

Compound: CN(C)CCOc1ccc(-c2cc(-c3c[nH]nc3-c3ccccn3)ccn2)cc1
%Inh: 16%

Compound: Cc1occc1-c1nc(N)c(OC[C@@H](N)Cc2c[nH]c3ccccc23)cc1-c1cc2c(C)n[nH]c2cn1
%Inh: 24%

Compound: CCN(CC)CCOc1ccc(Nc2ncc3cc(-c4c(Cl)cccc4Cl)c(=O)n(C)c3n2)cc1
%Inh: 47%

Compound: Cc1cc2cn[nH]c2cc1-c1cccc2c(N)c(C(N)=O)nnc12
%Inh: 0%

Compound: CN(C)CC(O)COc1ccc(Nc2nccc(-c3cnn4nc(N5CCOCC5)ccc34)n2)cc1 (stereo not drawn)
%Inh: 1%

Compound: CCN(CC)CCCCNc1ncc2cc(-c3c(Cl)cccc3Cl)c(NC(=O)NC(C)(C)C)nc2n1
%Inh: 0%

Compound: Cc1ccc(-n2nc(C(C)(C)C)cc2NC(=O)Nc2ccc(OCCN3CCOCC3)c3ccccc23)cc1
%Inh: 0%

Compound: CNC(=O)c1ccccc1Sc1ccc2c(/C=C/c3ccccn3)n[nH]c2c1
%Inh: 0%

Compound: C=CC(=O)Nc1cc2c(Nc3ccc(F)c(Cl)c3)ncnc2cc1OCCCN1CCOCC1
%Inh: 24%

Compound: O=C(NCCNc1ccnc(NCc2ccc(F)cc2)n1)c1cc2ccccc2s1
%Inh: 18%

Compound: Cc1cc(C(=O)Nc2ccc(Oc3ccc4nc(NC(=O)C5CC5)cn4n3)cc2)nn1-c1ccccc1
%Inh: 49%

Compound: C[C@H]1Oc2cc(cnc2N)-c2c(nn(C)c2C#N)CN(C)C(=O)c2ccc(F)cc21
%Inh: 0%

Compound: O=C(NCCCN1CCOC1=O)c1cnc(NCc2cc(Cl)ccc2Cl)nc1NC1CCCC1
%Inh: 16%

Compound: Nc1nc(Nc2ccccc2)cc(-c2ccc3c(N)n[nH]c3c2)n1
%Inh: 22%

Compound: NC(=O)c1cc(-c2ccccc2)cc2c(C3CCNCC3)c[nH]c12
%Inh: 54%

Compound: Cl.Cl.NC[C@H](CC1CCCCC1)NC(=O)c1cc(Br)c(-c2ccnc3[nH]ccc23)s1
%Inh: 5%

Compound: COc1ccc(C[C@@H](CN)NC(=O)c2cc(Br)c(-c3ccnc4[nH]ccc34)s2)cc1.Cl.Cl
%Inh: 0%

Compound: CC(C)Nc1cc(-c2ccc3c(N)n[nH]c3c2)nc(N)n1
%Inh: 19%
